Molecular target: T1, Cyk3, Q07533
T1 sequence (Q07533 1-83, looked up): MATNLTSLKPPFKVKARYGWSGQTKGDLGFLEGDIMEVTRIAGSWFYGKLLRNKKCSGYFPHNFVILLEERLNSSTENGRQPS
Experiment: SPOT array
Conditions: median of control spots 1451
hey, just use label 1 if measured SPOT intensity is less than 1, otherwise label 0

Is 1 strictly greater than the binder's reported SPOT intensity? binder: "IVNKPLPPLPVAGSS"
label 1

Field: below-cutoff. Rule: recorded SPOT intensity strictly less than 1. Subject: "RTRRRPPPPPIPSTQ"
label 0

Criterion: SPOT intensity strictly below 1. Is it met by "HVRRSILALPLGVLL" ?
label 0

hey, is SPOT intensity for "RKRRTHLRLPLIRSN" lower than 1 or not?
label 0
